molecular target: Delta-type opioid receptor (Mus musculus); experiment: Antagonist potency against delta opioid receptor in mouse vas deferens (MVD) using DPDPE; format: functional, tissue-based
metric: IC50 ratio

compound=Oc1ccc2c3c1O[C@H]1c4nc(-c5ccccc5)ncc4C[C@@]4(O)[C@@H](C2)N(CC2CC2)CC[C@]314 target_or_system="Delta-type opioid receptor (Mus musculus)" metric="IC50 ratio" measured=14.3
compound=Oc1ccc2c3c1O[C@H]1c4nc(Cc5ccccc5)nc(-c5ccccc5)c4C[C@@]4(O)[C@@H](C2)N(CC2CC2)CC[C@]314 target_or_system="Delta-type opioid receptor (Mus musculus)" metric="IC50 ratio" measured=4.8
compound=Oc1ccc2c3c1O[C@H]1c4ncc(-c5ccccc5)cc4C[C@@]4(O)[C@@H](C2)N(CC2CC2)CC[C@]314 target_or_system="Delta-type opioid receptor (Mus musculus)" metric="IC50 ratio" measured=249
compound=Oc1ccc2c3c1O[C@H]1c4nc(-c5ccccc5)nc(-c5ccccc5)c4C[C@@]4(O)[C@@H](C2)N(CC2CC2)CC[C@]314 target_or_system="Delta-type opioid receptor (Mus musculus)" metric="IC50 ratio" measured=7.63
compound="Oc1ccc2c3c1OC1c4nccc(-c5ccccc5)c4C[C@@]4(O)[C@@H](C2)N(CC2CC2)CC[C@]314 (stereo partly specified)" target_or_system="Delta-type opioid receptor (Mus musculus)" metric="IC50 ratio" measured=20.5
compound=Oc1ccc2c3c1O[C@H]1c4ncnc(-c5ccccc5)c4C[C@@]4(O)[C@@H](C2)N(CC2CC2)CC[C@]314 target_or_system="Delta-type opioid receptor (Mus musculus)" metric="IC50 ratio" measured=4.3

---

species on record: Cavia porcellus; experiment: Selectivity ratio of binding affinity towards kappa of guinea pig brain membrane to delta receptors of rat brain membranes; type: cell membranes
Selectivity ratio listing for selected molecules.
metric: Selectivity ratio

molecule=Oc1ccc2c3c1O[C@H]1c4ncccc4C[C@@]4(O)[C@@H](C2)N(CC2CC2)CC[C@]314 metric="Selectivity ratio" measured=11
molecule=Oc1ccc2c3c1O[C@H]1c4nc(Cc5ccccc5)nc(-c5ccccc5)c4C[C@@]4(O)[C@@H](C2)N(CC2CC2)CC[C@]314 metric="Selectivity ratio" measured=13
molecule=Oc1ccc2c3c1O[C@H]1c4nc5ccccc5c(-c5ccccc5)c4C[C@@]4(O)[C@@H](C2)N(CC2CC2)CC[C@]314 metric="Selectivity ratio" measured=3.7
molecule=Oc1ccc2c3c1O[C@H]1c4ncncc4C[C@@]4(O)[C@@H](C2)N(CC2CC2)CC[C@]314 metric="Selectivity ratio" measured=1.8
molecule="Cc1nc(-c2ccccc2)c2c(n1)C1Oc3c(O)ccc4c3[C@@]13CCN(CC1CC1)[C@H](C4)[C@]3(O)C2 (some centres not stated)" metric="Selectivity ratio" measured=1.7
molecule=Oc1ccc2c3c1O[C@H]1c4ncnc(-c5ccccc5)c4C[C@@]4(O)[C@@H](C2)N(CC2CC2)CC[C@]314 metric="Selectivity ratio" measured=0.9
molecule=Oc1ccc2c3c1O[C@H]1c4nc(-c5ccccc5)ccc4C[C@@]4(O)[C@@H](C2)N(CC2CC2)CC[C@]314 metric="Selectivity ratio" measured=10

---

Items are presented alongside their recorded Selectivity ratio.
species on record: Cavia porcellus; test: Selectivity ratio of binding affinity towards kappa of guinea pig brain membrane to delta receptors of rat brain membranes; format: cell membranes
metric: Selectivity ratio

smiles_input=Oc1ccc2c3c1O[C@H]1c4nc(-c5ccccc5)cc(-c5ccccc5)c4C[C@@]4(O)[C@@H](C2)N(CC2CC2)CC[C@]314 measured=25
smiles_input=Oc1ccc2c3c1O[C@H]1c4nc(-c5ccccc5)ncc4C[C@@]4(O)[C@@H](C2)N(CC2CC2)CC[C@]314 measured=0.7
smiles_input=Cc1ncc2c(n1)[C@@H]1Oc3c(O)ccc4c3[C@@]13CCN(CC1CC1)[C@H](C4)[C@]3(O)C2 measured=1.1
smiles_input=Oc1ccc2c3c1O[C@H]1c4nc(-c5ccccc5)nc(-c5ccccc5)c4C[C@@]4(O)[C@@H](C2)N(CC2CC2)CC[C@]314 measured=7.4

---

molecular target: Delta-type opioid receptor (Rattus norvegicus); test: Binding affinity for Opioid receptor delta 1 was determined by inhibition of binding of [3H]DADLE (1.3-2.0 nM) to rat brain membranes
Sequence (P33533 whole entry): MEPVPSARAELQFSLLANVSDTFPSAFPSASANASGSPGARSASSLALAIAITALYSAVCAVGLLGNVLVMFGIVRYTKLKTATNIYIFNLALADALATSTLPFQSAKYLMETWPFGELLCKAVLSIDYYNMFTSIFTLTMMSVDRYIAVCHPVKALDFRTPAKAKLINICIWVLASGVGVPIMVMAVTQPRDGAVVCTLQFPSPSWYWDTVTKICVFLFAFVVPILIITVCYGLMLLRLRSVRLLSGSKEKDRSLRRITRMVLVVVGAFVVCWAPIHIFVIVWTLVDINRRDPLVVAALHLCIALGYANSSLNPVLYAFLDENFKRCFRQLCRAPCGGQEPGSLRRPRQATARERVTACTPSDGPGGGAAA
metric: Ki (nM)

molecule="Cc1nc(-c2ccccc2)c2c(n1)C1Oc3c(O)ccc4c3[C@@]13CCN(CC1CC1)[C@H](C4)[C@]3(O)C2 (some centres undefined)" target_or_system="Delta-type opioid receptor (Rattus norvegicus)" metric=Ki measured=325
molecule="Oc1ccc2c3c1OC1c4nccc(-c5ccccc5)c4C[C@@]4(O)[C@@H](C2)N(CC2CC2)CC[C@]314 (some centres undefined)" target_or_system="Delta-type opioid receptor (Rattus norvegicus)" metric=Ki measured=73
molecule=Oc1ccc2c3c1O[C@H]1c4ncncc4C[C@@]4(O)[C@@H](C2)N(CC2CC2)CC[C@]314 target_or_system="Delta-type opioid receptor (Rattus norvegicus)" metric=Ki measured=3.5
molecule=Oc1ccc2c3c1O[C@H]1c4nc(-c5ccccc5)cc(-c5ccccc5)c4C[C@@]4(O)[C@@H](C2)N(CC2CC2)CC[C@]314 target_or_system="Delta-type opioid receptor (Rattus norvegicus)" metric=Ki measured=86
molecule=Oc1ccc2c3c1O[C@H]1c4nc(-c5ccccc5)nc(-c5ccccc5)c4C[C@@]4(O)[C@@H](C2)N(CC2CC2)CC[C@]314 target_or_system="Delta-type opioid receptor (Rattus norvegicus)" metric=Ki measured=344
molecule=Cc1ncc2c(n1)[C@@H]1Oc3c(O)ccc4c3[C@@]13CCN(CC1CC1)[C@H](C4)[C@]3(O)C2 target_or_system="Delta-type opioid receptor (Rattus norvegicus)" metric=Ki measured=22.7
molecule=Oc1ccc2c3c1O[C@H]1c4ncnc(-c5ccccc5)c4C[C@@]4(O)[C@@H](C2)N(CC2CC2)CC[C@]314 target_or_system="Delta-type opioid receptor (Rattus norvegicus)" metric=Ki measured=230
molecule=Oc1ccc2c3c1O[C@H]1c4nc5ccccc5c(-c5ccccc5)c4C[C@@]4(O)[C@@H](C2)N(CC2CC2)CC[C@]314 target_or_system="Delta-type opioid receptor (Rattus norvegicus)" metric=Ki measured=73
molecule=Oc1ccc2c3c1O[C@H]1c4nc(-c5ccccc5)ncc4C[C@@]4(O)[C@@H](C2)N(CC2CC2)CC[C@]314 target_or_system="Delta-type opioid receptor (Rattus norvegicus)" metric=Ki measured=16
molecule=Oc1ccc2c3c1O[C@H]1c4ncc(-c5ccccc5)cc4C[C@@]4(O)[C@@H](C2)N(CC2CC2)CC[C@]314 target_or_system="Delta-type opioid receptor (Rattus norvegicus)" metric=Ki measured=0.87
molecule=Oc1ccc2c3c1O[C@H]1c4nc(Cc5ccccc5)nc(-c5ccccc5)c4C[C@@]4(O)[C@@H](C2)N(CC2CC2)CC[C@]314 target_or_system="Delta-type opioid receptor (Rattus norvegicus)" metric=Ki measured=100
molecule="Cc1cc(-c2ccccc2)c2c(n1)C1Oc3c(O)ccc4c3[C@@]13CCN(CC1CC1)[C@H](C4)[C@]3(O)C2 (some centres undefined)" target_or_system="Delta-type opioid receptor (Rattus norvegicus)" metric=Ki measured=125
molecule=Oc1ccc2c3c1O[C@H]1c4nc(-c5ccccc5)ccc4C[C@@]4(O)[C@@H](C2)N(CC2CC2)CC[C@]314 target_or_system="Delta-type opioid receptor (Rattus norvegicus)" metric=Ki measured=1.76
molecule=Oc1ccc2c3c1O[C@H]1c4ncccc4C[C@@]4(O)[C@@H](C2)N(CC2CC2)CC[C@]314 target_or_system="Delta-type opioid receptor (Rattus norvegicus)" metric=Ki measured=0.78

---

Reported Ke by item:
target: Delta-type opioid receptor (Mus musculus); experiment: Antagonist potency measured as Ke = [antagonist]/(IC50 ratio-1) against delta opioid receptor from mouse vas deferens (MVD) using DPDPE; assay type: functional
metric: Ke (nM)

molecule=Oc1ccc2c3c1O[C@H]1c4nc(-c5ccccc5)cc(-c5ccccc5)c4C[C@@]4(O)[C@@H](C2)N(CC2CC2)CC[C@]314 metric=Ke units_text=nM measured=49
molecule="Oc1ccc2c3c1OC1c4nccc(-c5ccccc5)c4C[C@@]4(O)[C@@H](C2)N(CC2CC2)CC[C@]314 (some centres undefined)" metric=Ke units_text=nM measured=51
molecule=Oc1ccc2c3c1O[C@H]1c4nc(-c5ccccc5)ncc4C[C@@]4(O)[C@@H](C2)N(CC2CC2)CC[C@]314 metric=Ke units_text=nM measured=75
molecule=Oc1ccc2c3c1O[C@H]1c4ncnc(-c5ccccc5)c4C[C@@]4(O)[C@@H](C2)N(CC2CC2)CC[C@]314 metric=Ke units_text=nM measured=300
molecule=Oc1ccc2c3c1O[C@H]1c4nc(Cc5ccccc5)nc(-c5ccccc5)c4C[C@@]4(O)[C@@H](C2)N(CC2CC2)CC[C@]314 metric=Ke units_text=nM measured=260
molecule=Oc1ccc2c3c1O[C@H]1c4nc(-c5ccccc5)ccc4C[C@@]4(O)[C@@H](C2)N(CC2CC2)CC[C@]314 metric=Ke units_text=nM measured=25
molecule=Oc1ccc2c3c1O[C@H]1c4ncncc4C[C@@]4(O)[C@@H](C2)N(CC2CC2)CC[C@]314 metric=Ke units_text=nM measured=75
molecule=Cc1ncc2c(n1)[C@@H]1Oc3c(O)ccc4c3[C@@]13CCN(CC1CC1)[C@H](C4)[C@]3(O)C2 metric=Ke units_text=nM measured=150
molecule=Oc1ccc2c3c1O[C@H]1c4nc(-c5ccccc5)nc(-c5ccccc5)c4C[C@@]4(O)[C@@H](C2)N(CC2CC2)CC[C@]314 metric=Ke units_text=nM measured=150
